- targetOrTestSystem: human Werner helicase (WRN-BV08, Uniprot Q14191, amino acids 517-1235 with L1074F point mutation) (Homo sapiens, UniProt Q14191, L1074F)
- Construct: Uniprot Q14191, amino acids 517-1235 with L1074F point mutation; TEV-cleavable 8×His (C, cleaved yes); made in house; host or cells: Sf9 insect cells (baculovirus)
- Sequence (Q14191 with tags, fused parts or gaps L1074F limits assumed): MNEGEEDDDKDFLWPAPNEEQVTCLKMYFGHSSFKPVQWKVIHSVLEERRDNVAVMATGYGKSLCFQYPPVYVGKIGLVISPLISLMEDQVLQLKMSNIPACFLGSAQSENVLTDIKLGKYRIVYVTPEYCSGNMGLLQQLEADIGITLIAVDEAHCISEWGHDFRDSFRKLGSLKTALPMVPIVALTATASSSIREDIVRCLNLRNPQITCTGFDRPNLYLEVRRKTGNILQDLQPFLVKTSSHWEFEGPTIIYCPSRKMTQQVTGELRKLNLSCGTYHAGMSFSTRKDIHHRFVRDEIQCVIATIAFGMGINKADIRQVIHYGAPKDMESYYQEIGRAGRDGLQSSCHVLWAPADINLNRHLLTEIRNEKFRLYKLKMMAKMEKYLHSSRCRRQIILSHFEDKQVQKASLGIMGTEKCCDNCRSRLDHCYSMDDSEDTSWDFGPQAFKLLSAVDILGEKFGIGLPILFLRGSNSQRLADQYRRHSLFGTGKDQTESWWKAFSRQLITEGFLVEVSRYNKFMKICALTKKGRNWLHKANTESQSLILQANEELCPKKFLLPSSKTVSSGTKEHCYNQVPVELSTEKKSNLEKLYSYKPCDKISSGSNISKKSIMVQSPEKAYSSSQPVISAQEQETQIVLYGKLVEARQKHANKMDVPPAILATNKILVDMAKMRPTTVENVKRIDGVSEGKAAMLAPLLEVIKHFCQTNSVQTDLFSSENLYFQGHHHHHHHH
- testProtocol: WRN (BV08) ADP-Glo Assay
- Assay type: biochemical
- assayConditions: 0.15 nM WRN, 5 μM ATP, 0.1 nM DNA duplex, 15 min preincubation, 60 min at 25° C., pH 7.5, 1% DMSO; read-out: ADP-Glo_hWRN_IC50
pIC50: −log10 of the molar value.
Reported pIC50 values are given for each entry in this list.

Answered examples (2):
CN(C)C(=O)C(C(=O)N(Cc1ccnc(C(C)(C)O)c1)C1C=CS(=O)(=O)C1)c1ccc(-c2ccc(F)c(F)c2)cc1F (centres unmarked) | > 6.30
O=C(Cn1cc(-c2ccc(F)cc2)cn1)N(Cc1nc(C2CC2)cs1)C1C=CS(=O)(=O)C1 (single isomer, unassigned) [I-602] | > 6.30

# input I have this molecule here, COc1ccc2sc(CN(C(=O)Cc3ccc(-n4cccc4)cc3)C3C=CS(=O)(=O)C3)nc2c1 (centres unmarked) , and I need its recorded pIC50.
# output 5.30 to 6.30

# input Need pIC50 of O=C([C@H]1CC[C@@H](Cn2cccn2)O1)N(Cc1ccncc1)C1C=CS(=O)(=O)C1 (mixture of isomers) , thanks.
# output < 4.30

# input GET /values?readout=pIC50&item= O=C(Cc1ccc(S(F)(F)(F)(F)F)cc1)N(Cc1noc(C2CC2)n1)C1C=CS(=O)(=O)C1 (centres unmarked)
# output 5.30 to 6.30

# input Quick one: pIC50 for CC(C)(O)c1cc(CN(C(=O)C2CNc3cc(-c4ccc(F)cc4)ccc32)C2C=CS(=O)(=O)C2)ccn1 (centres unmarked) ?
# output 5.30 to 6.30

# input pIC50 for N#Cc1ccc(CC(=O)N(Cc2ccncc2)C2C=CS(=O)(=O)C2)cc1 (centres unmarked) ?
# output < 4.30

# input Which pIC50 is listed for COc1cc(CN(C(=O)Cn2ncc(-c3ccc(F)c(F)c3)c2C)[C@@H]2C=CS(=O)(=O)C2)ccn1 ?
# output > 6.30

# input Which pIC50 is reported for this molecule? Cc1cnccc1CN(C(=O)Cc1ccc(-n2cccc2)cc1)C1C=CS(=O)(=O)C1 (centres unmarked)
# output 4.30 to 5.00

# input Which value of pIC50 has been reported for CC(C)(O)c1cc(CN(C(=O)C(c2ccc(-c3ccc(F)c(F)c3)cc2F)n2ccnn2)C2C=CS(=O)(=O)C2)ccn1 (single isomer, unassigned) [I-801] in the records?
# output > 6.30

# input pIC50 lookup needed for COc1cc(C(C)N(C(=O)Cn2cc(-c3cc(F)c(F)c(F)c3)cn2)C2C=CS(=O)(=O)C2)ccn1 (single isomer, unassigned) [I-828] , thanks.
# output 5.30 to 6.30

# input molecule: CN(C)C(=O)C(C(=O)N(Cc1ccnc(C(C)(C)O)c1)C1C=CS(=O)(=O)C1)c1ccc(-c2ccc(F)cc2)cc1 (single isomer, unassigned) [I-271] ; wanted: its pIC50
# output 5.00 to 5.30

# input Requested read-out: pIC50. Entry: COc1cc(CN(C(=O)C(O/C=C/S(C)(=O)=O)c2ccc(-c3ccc(F)c(F)c3)cc2F)[C@@H]2C=CS(=O)(=O)C2)ccn1 (single isomer, unassigned) [I-803]
# output < 4.30

# input Which pIC50 reading was recorded for the molecule CN(C)C(=O)CC(C(=O)N(Cc1ccncc1)C1C=CS(=O)(=O)C1)c1ccc(-n2cccc2)cc1 (centres unmarked) ?
# output < 4.30

Just for reference, patent US20260297070A1 is where these values come from.
